# assay_name: CF transport assay in EYPC⊃CF vesicles (carrier activity)
# Assay type: biochemical
# reported_conditions: CF assay, EYPC LUVs; 0.1 µM polyArg; pH 7.4; 5% error (SD); read-out: PolyArg EC 50
endpoint: EC50 (µM)
Note: unit µM is implicit; provide only the numeric part.

Query :: Please look up its EC50: O=C(O)CCCc1ccc2ccc3cccc4ccc1c2c34 [PyBu^‒, pyrenebutyrate, reference compound]
Result :: 12

---

# assay_name: CF transport assay in EYPC⊃CF vesicles (carrier activity)
# Type: biochemical
# reported_conditions: CF assay, EYPC LUVs; 1 µM protamine; pH 7.4; 5% error (SD); read-out: Protamine EC 50
endpoint: EC50 (µM)
Give the quantity in µM, number only.

Query :: Any idea what its EC50 is? The molecule is O=C(O)CCCc1ccc2ccc3cccc4ccc1c2c34 [PyBu^‒, pyrenebutyrate, reference compound]
Result :: 39
